Recorded values, source patent EP4707284A1.

Assay type: physicochemical
condition details: Tris-hydrochloric acid buffer (pH 7.5) 50 mmol/L, magnesium chloride 5 mmol/L, evaluation compound 1 µmol/L, 37°C, 60 minutes, average of duplicate
measurement type: Concentration of brexpiprazole formed (nM)

[
  {
    "compound": "CCCCCCOC(=O)OC[N+]1(CCCCOc2ccc3ccc(=O)[nH]c3c2)CCN(c2cccc3sccc23)CC1.[I-] [REX 7, reference compound]",
    "measurement type": "Concentration of brexpiprazole formed",
    "readout number": 240
  },
  {
    "compound": "O=C(OCCCOC1CCCCO1)OCOP(=O)([O-])OC[N+]1(CCCCOc2ccc3ccc(=O)[nH]c3c2)CCN(c2cccc3sccc23)CC1 (stereo not drawn)",
    "measurement type": "Concentration of brexpiprazole formed",
    "readout number": 0
  },
  {
    "compound": "CCCCCC(=O)OCOP(=O)([O-])OC[N+]1(CCCCOc2ccc3ccc(=O)[nH]c3c2)CCN(c2cccc3sccc23)CC1",
    "measurement type": "Concentration of brexpiprazole formed",
    "readout number": 0
  },
  {
    "compound": "O=C(CCCCCO)OCOP(=O)([O-])OC[N+]1(CCCCOc2ccc3ccc(=O)[nH]c3c2)CCN(c2cccc3sccc23)CC1",
    "measurement type": "Concentration of brexpiprazole formed",
    "readout number": 0
  },
  {
    "compound": "O=C(OCOP(=O)([O-])OC[N+]1(CCCCOc2ccc3ccc(=O)[nH]c3c2)CCN(c2cccc3sccc23)CC1)OCC1CCOCC1",
    "measurement type": "Concentration of brexpiprazole formed",
    "readout number": 0
  },
  {
    "compound": "CC1(C)OCC(COC(=O)CCCCC(=O)OCOP(=O)([O-])OC[N+]2(CCCCOc3ccc4ccc(=O)[nH]c4c3)CCN(c3cccc4sccc34)CC2)CO1",
    "measurement type": "Concentration of brexpiprazole formed",
    "readout number": 0
  }
]
